# protocol_summary: Cell viability assay (CellTiter 96 AQueous One) in VeroE6 cells
# measurement_context: African green monkey
Consider the following compounds and their measured CC50 at 48 h readings.
property_measured: CC50 at 48 h (µg/mL)

{"columns": ["compound", "property_measured", "unit_label", "readout_value"],
 "data": [
  ["C[C@@H]1CC[C@H]2[C@@H](C)C(=O)O[C@@H]3O[C@@]4(C)CC[C@@H]1[C@]32OO4 [Artemisinin]", "CC50 at 48 h", "µg/mL", 8220],
  ["C[C@H]1[C@H](OC(=O)CCC(=O)O)O[C@@H]2O[C@@]3(C)CC[C@H]4[C@H](C)CC[C@@H]1[C@@]24OO3 [Artesunate]", "CC50 at 48 h", "µg/mL", 41]
]}
